The values you see were collected from PubChem BioAssay.

experimental_details: reversal of MRP1-mediated doxorubicin resistance, pilot screen, H69AR cells, doxorubicin co-treatment (AID 601)
condition_notes: H69AR cells + 2 uM doxorubicin, CellTiter-Glo, 72 h; measured here: viability with 2 uM doxorubicin; at 10 µM; stronger effect = lower value
The entries below come with measured viability values attached.
# number only, unit % dropped from output

# chem_smiles, viability, %
records = [
    ("COc1cc2c(cc1OC)-c1cc(OCc3cccnc3)nc(=O)n1CC2", 90.8),
]

Query block: Provide viability value for the following compound: CCCc1cn(S(=O)(=O)c2ccc(OC)cc2OC)nc1N
Result block: 88.7

Query block: Provide viability value for the following compound: O=C(CCCn1c(=S)[nH]c2ccccc2c1=O)N1CCCCC1
Result block: 90.2

Query block: Provide viability value for the following compound: CCCCCCn1c(SCCCC)nc2c1c(=O)[nH]c(=O)n2C
Result block: 87.5

---

experimental_details: reversal of MRP1-mediated doxorubicin resistance, pilot screen, H69AR cells, doxorubicin co-treatment (AID 601)
condition_notes: H69AR cells + 2 uM doxorubicin, CellTiter-Glo, 72 h; measured here: viability with 2 uM doxorubicin; at 10 µM; stronger effect = lower value
measure: viability (%)
# number only, unit % dropped from output

Sample answers from the record:
# compound, viability, %
data = [
    ("CCOC(=O)c1[nH]c(C)c(C(=O)N(C)C)c1C", 96.6),
    ("CCOC(=O)N1CCN(c2nc(-c3ccc(Cl)cc3)cs2)CC1", 98.6),
    ("Cn1c2c(c(=O)n(C)c1=O)CN(CCCN1CCOCC1)CN2", 101),
    ("C=C(C)c1cccc(C(C)(C)NC(=O)Nc2ncccn2)c1", 75.7),
    ("COc1ccc(C(CNC(=O)c2cc(C)oc2C)N2CCOCC2)cc1 (stereo unspecified)", 110),
]

Query block: Provide viability value for the following compound: O=C(NCCCCNC(=O)c1cccnc1)c1cccnc1
Result block: 102

Query block: Provide viability value for the following compound: CN(C)S(=O)(=O)c1ccc(C(=O)NCc2cccs2)cc1
Result block: 92.8

Query block: Provide viability value for the following compound: Cn1cc(CN2CCc3ccccc3C2)c2ccccc21
Result block: 84.1

Query block: Provide viability value for the following compound: CCCn1c(SCC(=O)N2CCCc3ccccc32)nnc1-c1ccccn1
Result block: 93.2

Query block: Provide viability value for the following compound: Cc1nc(SCCC(=O)O)c2ccccc2n1
Result block: 84

Query block: Provide viability value for the following compound: CCOC(=O)CSc1nnc(-c2cccnc2)n1Cc1ccccc1
Result block: 96.2

Query block: Provide viability value for the following compound: Cc1nc2nc(SCC(=O)NCc3ccco3)nn2c(C)c1Cc1ccccc1
Result block: 77.2

Query block: Provide viability value for the following compound: Cn1c(=O)[nH]c(=O)c2[nH]c(CN3CCN(C(=O)c4ccco4)CC3)nc21
Result block: 92.9

---

experimental_details: reducers of endogenous Her2 protein level, primary screen, SKBR3 breast tumor cells, AlphaScreen, ATP viability (AID 461);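 for viability: percent of carrier control wells set as 100% viability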
condition_notes: 18-24 h, measured here: SKBR3 viability, ATP luminescence, at 10 µM
measure: viability (%)
# number only, unit % dropped from output

Sample answers from the record:
# molecule, endpoint_unit, viability
data = [
    ("CC1CCN(S(=O)(=O)c2ccc(S(=O)(=O)NCC(=O)C(C)(C)C)cc2)CC1", "%", 108),
    ("CCc1nc(C)c(-c2ccccc2)c(=O)[nH]1", "%", 102),
    ("Cc1ccc(S(=O)(=O)Cc2ccc(C(=O)NCCCN3CCN(C)CC3)o2)cc1", "%", 104),
    ("COc1ccc(-c2noc(-c3ccccc3C(=O)Nc3cccnc3)n2)cc1OC", "%", 89.5),
    ("COc1ccccc1N1CCN(CCCNC(=O)Nc2ccccc2)CC1", "%", 129),
    ("CC(C)(C)Nc1nc(OCC(F)(F)F)nc(OCC(F)(F)F)n1", "%", 108),
]

Query block: Provide viability value for the following molecule: CCOc1ccc(C(=O)N(CN2CCCC2=O)c2ccc(C)cc2)cc1
Result block: 125

Query block: Provide viability value for the following molecule: N#CCSc1nc2c(c(C3CC=CCC3)c1C#N)CCC2 (stereo not drawn)
Result block: 88.5

---

The entries below come with measured viability values attached.
experimental_details: reversal of MRP1-mediated doxorubicin resistance, pilot screen, H69AR cells, doxorubicin co-treatment (AID 601)
condition_notes: H69AR cells + 2 uM doxorubicin, CellTiter-Glo, 72 h; measured here: viability with 2 uM doxorubicin; at 10 µM; stronger effect = lower value
# number only, unit % dropped from output

Sample answers from the record:
# chem_smiles, endpoint_unit, viability
rows = [
    ("O=C(Nc1cccnc1)c1noc2c1CCCCC2", "%", 90.2),
    ("COC(=O)c1ccccc1NS(=O)(=O)c1ccc(F)cc1", "%", 88.4),
    ("COCCNC(=O)CN(C)S(=O)(=O)c1ccc2c(c1)OCCO2", "%", 88.2),
    ("COc1cccc(C(=O)CN2CCC(NC(=O)NC3CCCCC3)CC2)c1", "%", 91.5),
    ("CC1(C)CC(=O)C(CC2=C(O)CC(C)(C)CC2=O)=C(O)C1", "%", 91.8),
    ("O=C(OCN1C(=O)c2ccccc2C1=O)c1ccc2c(=O)n3c(nc2c1)CCC3", "%", 97.2),
    ("O=C(Cn1cnc2ccccc2c1=O)NCCC(=O)N1CCN(c2ccccc2)CC1", "%", 83.5),
    ("O=C(c1ccc(-c2cccc(C(F)(F)F)c2)o1)N1CCOCC1", "%", 76.6),
    ("Cc1cc(C2C(C#N)=C(N)SC(N)=C2C#N)c(C)s1", "%", 87.5),
    ("Cc1ccc(NC(=O)CSc2nnc(-c3cnccn3)n2Cc2ccco2)cc1C", "%", 97.5),
]

Query block: Provide viability value for the following compound: COc1cccc(-c2nnc3sc(-c4ccc(C)cc4)nn23)c1
Result block: 78.8

---

experimental_details: HUVEC growth inhibition – cell-based, human, primary screen (AID 575);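 note: 100% = median of untreated cell wells with 0.1% DMSO on each plate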
condition_notes: HUVEC proliferation, CellTiter-Glo luminescence, 72 h; at 10 µM; stronger effect = lower value
The source made the active and inactive calls.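 Rule for the calls: active = viability at or below 30% in both replicate assays; inconclusive = viability at or below 30% in just one of the two assays; inactive = the rest.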
measure: viability

Sample answers from the record:
# compound, viability
rows = [
    ("O=c1[nH]c(=O)n(C2CCCCCC2)c(O)c1C=NCc1ccc(F)cc1", "90.1% (inactive)"),
    ("Cc1ccccc1N(C)S(=O)(=O)c1ccc2[nH]cc(C(=O)NCC3CCCO3)c(=O)c2c1 (stereo not drawn)", "90.1% (inactive)"),
    ("COC(=O)c1ccc(-c2ccc(CNCC(O)c3ccccc3)o2)cc1 (stereo not drawn)", "88.8% (inactive)"),
]

Query block: Provide viability value for the following compound: CCOCCCNc1ncnc2c1[nH]c1ccccc12
Result block: 89.5% (inactive)

Query block: Provide viability value for the following compound: Cc1cccc2cc(CN(Cc3nnnn3Cc3ccccc3)C3CCCC3)c(=O)[nH]c12
Result block: 89.3% (inactive)

Query block: Provide viability value for the following compound: Cc1cc(N2CCN(c3ccccn3)CC2)n2nc(C)nc2n1
Result block: 90.2% (inactive)

Query block: Provide viability value for the following compound: N#CCCCN1C(=O)C(O)(CC(=O)c2ccc3c(c2)OCCO3)c2ccccc21 (stereo not drawn)
Result block: 89.5% (inactive)

Query block: Provide viability value for the following compound: Cc1cc(Nc2ccc(C(=O)O)cc2)n2nc(C)nc2n1
Result block: 90.5% (inactive)

---

The entries below come with measured Her2 level values attached.
system_under_test: Receptor tyrosine-protein kinase erbB-2 (Homo sapiens)
experimental_details: reducers of endogenous Her2 protein level, primary screen, SKBR3 breast tumor cells, AlphaScreen, ATP viability (AID 461);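 for Her2 level: lower value means less Her2 protein in the cells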;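 for viability: percent of carrier control wells set as 100% viability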
condition_notes: 18-24 h, at 10 µM, stronger effect = lower value
# number only, unit % dropped from output

Sample answers from the record:
# molecule, reported_measurement
rows = [
    ("Cc1cccc(-n2ccnc2SCC(=O)Nc2cc(C)on2)c1", 102),
    ("O=C1NC(Nc2ccccn2)(C(F)(F)F)C(=O)N1c1ccc(F)cc1 (stereo not given)", 89),
    ("O=C(O)CC1NC(=O)N(c2ccccc2)C1=O (stereo not given)", 85),
]

Query block: Give Her2 level for O=S(=O)(c1cc(Cl)ccc1Br)N1CCOCC1 tested on Receptor tyrosine-protein kinase erbB-2 (Homo sapiens).
Result block: 108

Query block: Give Her2 level for C=CCn1c(=O)/c(=C/c2ccc(O)cc2)s/c1=C(/C#N)c1nnc2n1CCCCC2 tested on Receptor tyrosine-protein kinase erbB-2 (Homo sapiens).
Result block: 103

Query block: Give Her2 level for FC(F)(F)c1nnc2sc(-c3cccs3)nn12 tested on Receptor tyrosine-protein kinase erbB-2 (Homo sapiens).
Result block: 86.5

Query block: Give Her2 level for Cc1ccc(-n2c(=O)c3sccc3n(CC(=O)NCc3ccco3)c2=O)cc1 tested on Receptor tyrosine-protein kinase erbB-2 (Homo sapiens).
Result block: 102

Query block: Give Her2 level for CCSc1nc(C)nc2c1oc1ccccc12 tested on Receptor tyrosine-protein kinase erbB-2 (Homo sapiens).
Result block: 82
